experiment: method code SF-GLC, from DOI: 10.1007/s002679900238, PMID: 10486045
observation_type: logP
Output: the number by itself.

>  <compound>
CC1(C)C2CCC1(C)C(OCCO)C2 (configuration not stated)

>  <observation_type>
logP

>  <reported_value>
3.32

$$$$

Turning now to a further compound:
[in] Query: logP; subject: CC1=CCC(C(C)C)=CC1
[out] 4.5

* * *

assay: method code SF-AS, from DOI: 10.1021/jf950378u
Quick reference: logP of the listed items.
Output: the number by itself.

>  <substance_smiles>
COc1ccc([C@@H]2CC(=O)c3c(O)cc(O[C@@H]4O[C@H](CO[C@@H]5O[C@@H](C)[C@H](O)[C@@H](O)[C@H]5O)[C@@H](O)[C@H](O)[C@H]4O)cc3O2)cc1O

>  <observation_type>
logP

>  <reported_value>
0.32

$$$$
>  <substance_smiles>
O=c1ccc2ccc(O)c(O)c2o1

>  <observation_type>
logP

>  <reported_value>
0.71

$$$$
>  <substance_smiles>
O=C(O)/C=C/c1ccccc1O

>  <observation_type>
logP

>  <reported_value>
0.62

$$$$

Turning now to a further compound:
[in] Query: logP; subject: Oc1cc(O)c2c(c1)O[C@H](c1ccc(O)c(O)c1)[C@@H](O)C2
[out] 1.31
